Target: human PPARα (Homo sapiens, UniProt Q07869)
Construct: expressed in transfected cells; host or cells: CV-1 cells
Sequence (Q07869 167-468): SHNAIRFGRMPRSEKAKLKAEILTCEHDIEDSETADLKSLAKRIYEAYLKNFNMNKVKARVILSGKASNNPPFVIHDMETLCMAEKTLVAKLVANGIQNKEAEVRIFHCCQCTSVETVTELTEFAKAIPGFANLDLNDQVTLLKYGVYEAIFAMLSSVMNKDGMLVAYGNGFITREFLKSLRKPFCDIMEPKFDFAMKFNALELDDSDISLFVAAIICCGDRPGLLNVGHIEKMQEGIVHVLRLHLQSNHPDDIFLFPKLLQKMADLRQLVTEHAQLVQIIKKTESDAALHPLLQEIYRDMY
Assay: Luciferase assay using human PPARα (Gal4-PPARα ligand binding domain chimeric receptor, CV-1 host cells)
Assay type: cell-based
Settings: PPARα agonistic activity; compound 10 μM; luciferase activity of carbacyclin (10 μM) defined as 1.0; CV-1 cells
So I've got a bunch of compounds here, and I need their Relative Activity to a positive control compound (carbacyclin = 1) values.
Answers are plain numbers.

| SUBSTANCE SMILES | MEASURED TARGET | ASSAY RESULT |
| --- | --- | --- |
| Cc1oc(-c2ccccc2)nc1Cc1ccc(/C=C/CSCC(=O)O)o1 | human PPARα (Homo sapiens, UniProt Q07869) | 2.6 |
| Cc1oc(-c2ccc3c(c2)OCO3)nc1Cc1ccc(/C=C/CSCC(=O)O)o1 | human PPARα (Homo sapiens, UniProt Q07869) | 3.1 |
| CCc1ccc(-c2nc(Cc3ccc(/C=C/CSCC(=O)O)o3)c(C)o2)cc1 | human PPARα (Homo sapiens, UniProt Q07869) | 1.8 |

Query block: Given `Cc1ccc(-c2nc(Cc3ccc(/C=C/CSCC(=O)O)o3)c(C)o2)cc1` , state its recorded Relative Activity to a positive control compound (carbacyclin = 1).
Result block: 1.5

====

System: SD rats
Test: Hypocholesterolemic and hypolipidemic effects in SD rats given hypercholesterolemic food
Type: in vivo
Details: male SD rats; orally in 0.5% CMC, then hypercholesterolemic food; blood at 9:00 of the next day; control 615 ± 80
So I've got a bunch of compounds here, and I need their NEFA level values.
Numbers only, in µEq/l.

Recorded NEFA level, per entry:
| SUBSTANCE SMILES | NEFA level (µEq/l) |
| --- | --- |
| Cc1ccc(-c2nc(Cc3ccc(/C=C/CSCC(=O)O)o3)c(C)o2)cc1 | 394 |
| Cc1oc(-c2ccccc2)nc1Cc1ccc(/C=C/CSCC(=O)O)o1 | 207 |
| Cc1oc(-c2ccc3c(c2)OCO3)nc1Cc1ccc(/C=C/CSCC(=O)O)o1 | 145 |

Please examine the following record next.
Query block: Given `CCc1ccc(-c2nc(Cc3ccc(/C=C/CSCC(=O)O)o3)c(C)o2)cc1` , state its recorded NEFA level.
Result block: 213

Every entry's value here was drawn from patent US6821994B2.
